system: Enterococcus faecalis; assay: Antibacterial activity against vancomycin-resistant, teicoplanin resistant Enterococcus faecalis HS06188 incubated for 24 hrs by broth microdilution method; format: functional
The entries below come with measured MIC values attached.

compound | studyTarget | MIC
N#Cc1cc(C(=O)c2cc(Cl)c(Cl)cc2O)[nH]n1 | Enterococcus faecalis | > 128 µg/mL
O=C(c1cc(C(F)(F)F)n[nH]1)c1cc(Cl)c(F)cc1O | Enterococcus faecalis | > 128 µg/mL
CN[C@H](CC(C)C)C(=O)N[C@H]1C(=O)N[C@@H](CC(N)=O)C(=O)N[C@H]2C(=O)N[C@H]3C(=O)N[C@H](C(=O)N[C@H](C(=O)O)c4cc(O)cc(O)c4-c4cc3ccc4O)[C@H](O)c3ccc(c(Cl)c3)Oc3cc2cc(c3O[C@@H]2O[C@H](CO)[C@@H](O)[C@H](O)[C@H]2O[C@H]2C[C@](C)(N)[C@H](O)[C@H](C)O2)Oc2ccc(cc2Cl)[C@H]1O [VANCOMYCIN] | Enterococcus faecalis | 2 µg/mL
O=C(c1cc(C(F)(F)F)n[nH]1)c1cc(Cl)c(Cl)cc1O | Enterococcus faecalis | > 128 µg/mL

Data credit: ChEMBL document CHEMBL5154852
